Target: Ecdysone receptor (Drosophila melanogaster) (UniProt P34021+P20153)
Experiment: Agonist activity at ecdysone receptor in Drosophila melanogaster S2 cells after 24 hr by luciferase reporter gene assay
Assay type: cell-based
Calls of active or inactive are those of the source. The rule behind the calls is not given here.
quantityName: pEC50

Cc1cc(C)cc(C(=O)C2(NC(=O)C(F)(F)F)CCCCC2)c1 : inactive
CN(NC(=O)c1ccccc1)C(=O)c1ccccc1 : inactive
CCCCCCCCCC(=O)NN(C(=O)c1cc(C)cc(C)c1)C(C)(C)C : inactive
CCCCCCCC(=O)NN(C(=O)c1cc(C)cc(C)c1)C(C)(C)C : inactive
CC1CCc2ccccc2N1C(=O)c1ccc(Cl)cc1 (stereo unspecified) : inactive

Value of pEC50 reported for the compound CCCCCC(=O)N(NC(=O)c1cc(C)cc(C)c1)C(C)(C)C is inactive
